# tgt: UniProtKB P0DMS8
# Sequence (P0DMS8 whole entry): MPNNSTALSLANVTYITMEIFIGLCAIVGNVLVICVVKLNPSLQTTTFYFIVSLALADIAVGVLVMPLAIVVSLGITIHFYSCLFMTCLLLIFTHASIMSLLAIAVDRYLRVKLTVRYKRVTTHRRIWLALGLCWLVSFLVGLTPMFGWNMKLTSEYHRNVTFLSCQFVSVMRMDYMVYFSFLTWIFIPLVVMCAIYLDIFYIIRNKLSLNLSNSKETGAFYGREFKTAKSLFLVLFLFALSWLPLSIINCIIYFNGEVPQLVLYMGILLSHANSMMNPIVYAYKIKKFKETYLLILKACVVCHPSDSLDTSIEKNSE
# assay.explanation: Activity at human adenosine A3 receptor transfected in CHO cells assessed as Cl-IB-MECA-inhibited cAMP accumulation by scintillation counting
Recorded IC50 for the following molecules

[
  {
    "smiles.record": "Oc1nc2ccccc2c2cc(-c3cccs3)nn12",
    "IC50": "263 nM"
  },
  {
    "smiles.record": "Cc1ccc(-c2cc3c4ccccc4nc(O)n3n2)cc1",
    "IC50": "88 nM"
  },
  {
    "smiles.record": "Oc1nc2ccccc2c2cc(-c3ccc(Cl)cc3)nn12",
    "IC50": "82 nM"
  },
  {
    "smiles.record": "Oc1nc2ccccc2c2cc(-c3ccco3)nn12",
    "IC50": "138 nM"
  },
  {
    "smiles.record": "COc1ccc(-c2cc3c4ccccc4[nH]c(=O)n3n2)cc1",
    "IC50": "324 nM"
  }
]

###

# tgt: Adenosine receptor A2b (Homo sapiens)
# Sequence (whole entry): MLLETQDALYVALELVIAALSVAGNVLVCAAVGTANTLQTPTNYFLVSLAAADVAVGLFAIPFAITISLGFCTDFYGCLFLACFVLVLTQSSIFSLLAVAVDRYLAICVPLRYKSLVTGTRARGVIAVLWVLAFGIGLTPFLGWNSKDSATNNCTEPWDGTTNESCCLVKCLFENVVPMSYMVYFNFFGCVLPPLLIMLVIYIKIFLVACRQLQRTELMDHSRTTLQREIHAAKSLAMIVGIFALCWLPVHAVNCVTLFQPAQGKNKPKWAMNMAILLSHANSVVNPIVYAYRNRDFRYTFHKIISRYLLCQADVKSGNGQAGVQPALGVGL
# assay.explanation: Antagonist activity at human adenosine A2b receptor transfected in CHO cells assessed as inhibition of NECA-induced cAMP accumulation at 1 uM by scintillation counting
# Format: functional, cell-based
measured.property: inhibition (%)

[
  {
    "smiles.record": "Nc1nc2ccccc2c2cc(-c3ccccc3)nn12",
    "result.number": 3
  },
  {
    "smiles.record": "CC(C)OC(=O)c1cc2c3ccccc3nc(O)n2n1",
    "result.number": 4
  },
  {
    "smiles.record": "Nc1ccccc1-c1cc(-c2ccco2)n[nH]1",
    "result.number": 1
  },
  {
    "smiles.record": "Oc1ccccc1-c1cc(-c2ccccc2)[nH]n1",
    "result.number": 4
  },
  {
    "smiles.record": "Oc1nc2ccccc2c2cc(-c3ccco3)nn12",
    "result.number": 3
  },
  {
    "smiles.record": "Oc1nc2ccccc2c2cc(-c3ccc(Cl)cc3)nn12",
    "result.number": 3
  },
  {
    "smiles.record": "CCOC(=O)c1ccccc1-c1cc(-c2cccs2)n[nH]1",
    "result.number": 2
  },
  {
    "smiles.record": "COc1ccc(-c2cc3c4ccccc4[nH]c(=O)n3n2)cc1",
    "result.number": 2
  },
  {
    "smiles.record": "O=C(OCc1ccccc1)c1cc2c3ccccc3[nH]c(=O)n2n1",
    "result.number": 2
  },
  {
    "smiles.record": "Oc1nc2ccccc2c2cc(-c3ccccc3F)nn12",
    "result.number": 1
  },
  {
    "smiles.record": "COc1ccc(-c2cc(-c3ccccc3N)[nH]n2)cc1",
    "result.number": 5
  },
  {
    "smiles.record": "CCOC(=O)c1nn2c(=O)[nH]c3ccccc3c2c1C(=O)OCC",
    "result.number": 5
  },
  {
    "smiles.record": "O=C(NCc1ccccc1)c1cc2c3ccccc3[nH]c(=O)n2n1",
    "result.number": 1
  },
  {
    "smiles.record": "Cc1ccc(-c2cc3c4ccccc4nc(O)n3n2)cc1",
    "result.number": 2
  },
  {
    "smiles.record": "Oc1nc2ccccc2c2cc(-c3ccccn3)nn12",
    "result.number": 2
  },
  {
    "smiles.record": "Nc1ccccc1-c1cc(-c2ccccc2)n[nH]1",
    "result.number": 2
  },
  {
    "smiles.record": "CCOC(=O)c1cc2c3ccccc3nc(O)n2n1",
    "result.number": 3
  },
  {
    "smiles.record": "COC(=O)c1cc2c3ccccc3nc(O)n2n1",
    "result.number": 6
  },
  {
    "smiles.record": "Oc1nc2ccccc2c2cc(-c3cccs3)nn12",
    "result.number": 6
  },
  {
    "smiles.record": "COc1ccc(-c2cc3c4ccccc4nc(N)n3n2)cc1",
    "result.number": 3
  },
  {
    "smiles.record": "Oc1ccccc1-c1n[nH]c(-c2ccccc2)n1",
    "result.number": 8
  },
  {
    "smiles.record": "Oc1nc2ccccc2c2cc(-c3ccccc3)nn12",
    "result.number": 4
  },
  {
    "smiles.record": "Nc1ccccc1-c1cc(-c2cccs2)n[nH]1",
    "result.number": 3
  },
  {
    "smiles.record": "O=C(Nc1nc2ccccc2c2cc(-c3ccccc3)nn12)c1ccccc1",
    "result.number": 4
  },
  {
    "smiles.record": "Nc1nc2ccccc2c2cc(-c3cccs3)nn12",
    "result.number": 3
  }
]
